FYI, the data here is from paper PMC4043716.

- Type: cell-based
- TEST SETTINGS: human, SH-SY5Y cells
RESULT TYPE: viability at 24 h, 1 μM (%)
Return type: number; implicit unit %.

Exercise: Requested read-out: viability at 24 h, 1 μM. Entry: "CN[C@@H]1C[C@H]2O[C@@](C)([C@@H]1OC)n1c3ccccc3c3c4c(c5c6ccccc6n2c5c31)C(=O)NC4"
Key: 6

###

- Assay type: cell-based
- TEST SETTINGS: rat, PC12 cells
RESULT TYPE: viability at 24 h, 1 μM (%)
Return type: number; implicit unit %.

Exercise: Requested read-out: viability at 24 h, 1 μM. Entry: CN[C@@H]1C[C@H]2O[C@@](C)([C@@H]1OC)n1c3ccccc3c3c4c(c5c6ccccc6n2c5c31)C(=O)NC4 [staurosporine]
Key: 4
